- System: H1N1 (influenza A/New Caledonia/20/99)
- measurement_notes: microbe, parasite or virus in culture
- Assay type: cell-based
- assay_conditions: Influenza A virus, H1N1, A549, 48 h
pIC50: −log10 of the molar value.
Label 0 if pIC50 falls below 5; label 1 in every other case.

-- ask Decide: pIC50 of O=C(Nc1ccc(Cl)cc1)c1c(NC(=O)C2CCCC2C(=O)O)sc2c1CCC2 (centres unmarked) >= 5?
-- reply 0

-- ask Decide: pIC50 of COc1cccc(NC(=O)c2c(NC(=O)C3CCCCC3C(=O)O)sc3c2CCC3)c1 (centres unmarked) >= 5?
-- reply 0

-- ask Decide: pIC50 of O=C(Nc1ccc(Cl)cc1)c1c(NC(=O)C2CCCCC2C(=O)O)sc2ccccc12 (centres unmarked) >= 5?
-- reply 1

-- ask Decide: pIC50 of CC1OCc2sc(NC(=O)C3CCCCC3C(=O)O)c(C(=O)Nc3ccc(Cl)cc3)c21 (centres unmarked) >= 5?
-- reply 0

-- ask Decide: pIC50 of Cc1cc(NC(=O)c2c(NC(=O)C3CCCCC3C(=O)O)sc3c2CCC3)ccc1Cl (centres unmarked) >= 5?
-- reply 1

-- ask Decide: pIC50 of Cc1nccn1CC(=O)Nc1sc2c(c1C(=O)Nc1ccc(Cl)cc1)CCCC2 >= 5?
-- reply 0

New cases:
-- ask Decide: pIC50 of CS(=O)(=O)N1CCOC(C(=O)Nc2sc3c(c2C(=O)Nc2ccc(Cl)cc2)CCC3)C1 (centres unmarked) >= 5?
-- reply 1

-- ask Decide: pIC50 of CCc1c(C)sc(NC(=O)C2CCCCC2C(=O)O)c1C(=O)Nc1ccc(Cl)cc1 (centres unmarked) >= 5?
-- reply 0

-- ask Decide: pIC50 of CS(=O)(=O)c1ccc(NC(=O)c2c(NC(=O)C3CCCCC3C(=O)O)sc3c2CCC3)cc1 (centres unmarked) >= 5?
-- reply 0

-- ask Decide: pIC50 of O=C(Nc1ccc(OC(F)(F)F)cc1)c1c(NC(=O)C2CCCCC2C(=O)O)sc2c1CCC2 (centres unmarked) >= 5?
-- reply 1
